Consider the following compounds; for each one, report its Toxicity Data, Average, Mean percentage relative to DMSO control.
system: cells (nuclei count); details: Average of Exp 1 (SMW491) and Exp 2 (SMW492), n=4, 25 uM
One number for each entry, in %.

Study these solved cases before continuing.
compound: COc1ccc(CNCCc2ccccc2F)c(OCC(O)CN2CCN(C)CC2)c1 (centres unmarked) [SILCS45]
data value: 119.79

compound: CCN(CC)CCN(Cc1ccccn1)C(=O)c1cccs1 [SILCS37]
data value: 104.07

compound: COc1ccc(CNCCc2ccccc2F)c(OCC(O)CN2CCCC2)c1 (racemic) [SILCS43]
data value: 136.27

Hi, could you look up Toxicity Data, Average, Mean percentage relative to DMSO control for each item in my list?
1. CCN(CC)CCN(Cc1cc(C)c(Br)s1)Cc1cc(C)c(Br)s1 [SILCS39]
2. COc1ccc(CNCCc2ccccc2F)c(OCC(O)CN2CCN(C)CC2)c1 (centres unmarked) [SILCS46]

1: 128.15; 2: 117.77

====

Exercise: for every item that follows, state its recorded Toxicity Data, Average, Mean.
tested on: cells (nuclei count); conditions: Average of Exp 1-3, n 9, 50 uM
Numbers only, in %.

Look over these answered cases.
molecule: Cc1ccc(CN(CCN(C)C)Cc2cc(C#CCO)cs2)s1 [SILCS1]
units text: %
data value: 84.14

molecule: Cc1cc(CN(CCN(C)C)Cc2ccsc2)oc1C [SILCS27]
units text: %
data value: 86.33

molecule: CCOc1cccc(CNCCc2ccccc2F)c1OCC(O)CN1CCN(C)CC1 (stereo not shown) [SILCS3]
units text: %
data value: 86.97

molecule: COc1ccc(CNCCc2ccccc2F)c(OCC(O)CN2CCN(C)CC2)c1 (racemic) [UMB18G]
units text: %
data value: 78.15

molecule: CCN(CC)CCN(Cc1ccccc1)Cc1ccc(C)o1 [SILCS23]
units text: %
data value: 92.88

molecule: OC(COc1c(CNCCc2ccccc2F)cccc1N1CCNCC1)CN1CCCC1 (stereo not shown) [SILCS22]
units text: %
data value: 68.81

Please turn your attention to the following entry.
Which measured Toxicity Data, Average, Mean value corresponds to CCN(CC)CCN(Cc1ccc(C)o1)Cc1cccs1 [SILCS24] ?
76.48

====

I'd be grateful if you could share measured Influenza virus titer, 50 μM for these entries.
test system: Influenza virus; assay: organism not typed; type: cell-based, influenza A virus; conditions: 50 μM; upper part of table (FIG. 5 data), plaque assay
State the value with its unit after it.

In the examples that follow, each entry is paired with its recorded Influenza virus titer, 50 μM.
compound: COc1ccc(CNCCCSC)c(OCC(O)CN2CCN(C)CC2)c1 (centres unmarked)
assay readout: Influenza virus titer, 50 μM
data value: 90000 PFU/virus/ml
//
compound: COc1ccc(CNC2CCCCCCC2)c(OCC(O)CN2CCN(C)CC2)c1 (centres unmarked)
assay readout: Influenza virus titer, 50 μM
data value: 38000 PFU/virus/ml
//
compound: COc1ccc(CNCCCn2ccnc2)c(OCC(O)CN2CCN(C)CC2)c1 (centres unmarked)
assay readout: Influenza virus titer, 50 μM
data value: 30000 PFU/virus/ml
//
compound: COc1ccc(CNCCCn2cccn2)c(OCC(O)CN2CCN(C)CC2)c1 (centres unmarked)
assay readout: Influenza virus titer, 50 μM
data value: 80000 PFU/virus/ml
//
compound: COc1ccc(CNCCc2ccccc2F)c(OCC(O)CN2CCN(C)CC2)c1 (centres unmarked)
assay readout: Influenza virus titer, 50 μM
data value: 1400 PFU/virus/ml

Hi team, please reply with Influenza virus titer, 50 μM for each item in this list.
1. COc1ccc(CNC2CCCC2)c(OCC(O)CN2CCN(C)CC2)c1 (centres unmarked)
2. COc1ccc(CNCCc2ccccc2Cl)c(OCC(O)CN2CCN(C)CC2)c1 (centres unmarked)
3. COc1ccc(CNCCCSC)c(OCC(O)CN2CCCCCCC2)c1 (centres unmarked)

1: 2200 PFU/virus/ml; 2: 1100 PFU/virus/ml; 3: 80000 PFU/virus/ml
